Target protein (sequence): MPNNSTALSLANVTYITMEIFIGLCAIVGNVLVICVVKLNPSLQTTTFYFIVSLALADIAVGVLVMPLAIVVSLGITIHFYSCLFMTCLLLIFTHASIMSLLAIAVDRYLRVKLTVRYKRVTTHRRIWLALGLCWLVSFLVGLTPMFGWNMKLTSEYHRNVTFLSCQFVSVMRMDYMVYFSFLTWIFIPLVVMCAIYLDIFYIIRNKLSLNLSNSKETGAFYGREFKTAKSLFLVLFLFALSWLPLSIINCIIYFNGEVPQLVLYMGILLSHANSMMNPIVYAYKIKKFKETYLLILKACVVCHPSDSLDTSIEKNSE
Reported metric: Ki (µM)

CCOC(=O)c1nc(NC(=O)Cc2ccccc2)nc2nn(C)cc12; 14.6

A. CCOC(=O)c1nc(N)nc2nn(C(C)C)cc12
B. CCOC(=O)c1nc(NC(=O)c2ccc(C)cc2)nc2nn(C)cc12
Query: Higher Ki: A or B ? Your answer should be the label of the entry you select.
Result: B
(B: 100 µM, A: 14 µM)

###

# Measured on: Adenosine receptors; A1 & A3 (Homo sapiens) (UniProt P30542+P0DMS8)
# Assay info: Selectivity ratio of Ki for human adenosine A1 receptor to Ki for human adenosine A3 receptor
Reported Ratio Ki values follow for various molecules

Recorded Ratio Ki, per entry:
CCOC(=O)c1nc(NC(=O)c2ccc(C)cc2)nc2nn(C)cc12; > 1
CCOC(=O)c1nc(NC(=O)c2ccccc2)nc2nn(C(C)C)cc12; 0.5
CCOC(=O)c1nc(NC(=O)c2ccc(C)cc2)nc2nn(CCc3ccccc3)cc12; > 33

Query: Enter Ratio Ki (test system Adenosine receptors; A1 & A3 (Homo sapiens) (UniProt P30542+P0DMS8)) for "CCOC(=O)c1nc(NC(=O)c2ccccc2)nc2nn(C)cc12"
Result: < 0.14

###

# Measured on: Adenosine receptors; A1 & A3 (Homo sapiens) (UniProt P30542+P0DMS8)
# Assay info: Selectivity ratio of Ki for human adenosine A1 receptor to Ki for human adenosine A3 receptor
Reported metric: Ratio Ki

Recorded Ratio Ki, per entry:
CCOC(=O)c1nc(NC(=O)c2ccc(C(F)(F)F)cc2)nc2nn(CCc3ccccc3)cc12; 0.5
NC(=O)c1nc(N)nc2nn(CCc3ccccc3)cc12; 1.2
CCOC(=O)c1nc(N)nc2nn(CC(C)(C)C)cc12; 0.38

I. CCOC(=O)c1nc(NC(=O)Cc2ccccc2)nc2nn(CC(C)(C)C)cc12
II. CCOC(=O)c1nc(NC(=O)c2ccc(C)cc2)nc2nn(C(C)C)cc12
Query: Select one. Lower Ratio Ki: I or II Your answer should be the label of the entry you select.
Result: II
(II: 0.02, I: 0.62)

###

// each record: one item and its Ki for Adenosine receptor A2a (Homo sapiens, UniProt P29274)

CCOC(=O)c1nc(N(C(=O)c2ccccc2)C(=O)c2ccccc2)nc2nn(C)cc12; > 100 µM
CCOC(=O)c1nc(N(C(=O)c2ccc(F)c(F)c2)C(=O)c2ccc(F)c(F)c2)nc2nn(C)cc12; > 100 µM
CC(C)(C)Cn1cc2c(C(N)=O)nc(N)nc2n1; > 80 µM
CCOC(=O)c1nc(N(C(=O)c2ccccc2)C(=O)c2ccccc2)nc2nn(C(C)C)cc12; > 100 µM
CCOC(=O)c1nc(NC(=O)c2ccc(C(F)(F)F)cc2)nc2nn(C(C)C)cc12; > 100 µM

Next item in the queue.
Query: Enter Ki (test system Adenosine receptor A2a (Homo sapiens, UniProt P29274)) for "CCOC(=O)c1nc(NC(=O)c2ccc(Cl)c(Cl)c2)nc2nn(CCc3ccccc3)cc12"
Result: > 100 µM
